Test system: Moraxella catarrhalis
Experiment: microbe, parasite or virus in culture
Description: Antibacterial activity against Moraxella catarrhalis BC-3531
quantity kind: MIC (µg/mL)

Some compounds with known MIC results, for comparison:
compound=CC(=O)NC[C@H]1CN(c2ccc3c(c2)CCCc2cn[nH]c2-3)C(=O)O1 quantity_kind=MIC experimental_result=2
compound=CCCNc1n[nH]c2c1CCCc1cc(N3C[C@H](CNC(C)=O)OC3=O)ccc1-2 quantity_kind=MIC experimental_result=8
compound=CC(=O)NC[C@H]1CN(c2ccc3c(c2)CCCc2c(NCCN)n[nH]c2-3)C(=O)O1 quantity_kind=MIC experimental_result=4
compound="CC(=O)NC[C@H]1CN(c2ccc3c(c2)CCCc2c(NC(=O)C(O)CO)n[nH]c2-3)C(=O)O1 (some centres undefined)" quantity_kind=MIC experimental_result=32
compound=CC(=O)NC[C@H]1CN(c2ccc3c(c2)CCCc2c(Nc4ccccc4)n[nH]c2-3)C(=O)O1 quantity_kind=MIC experimental_result=2

I = CCNc1n[nH]c2c1CCCc1cc(N3C[C@H](CNC(C)=O)OC3=O)ccc1-2
II = CC(=O)NC[C@H]1CN(c2ccc3c(c2)CCCc2c(NCCc4ccccn4)n[nH]c2-3)C(=O)O1
III = COCCCNc1n[nH]c2c1CCCc1cc(N3C[C@H](CNC(C)=O)OC3=O)ccc1-2
IV = CCN(CC)CCCNc1n[nH]c2c1CCCc1cc(N3C[C@H](CNC(C)=O)OC3=O)ccc1-2
Input: Sort the 4 compounds by MIC; largest first, smallest last. Give the labels in the order specified.
Output: IV, III, II, I

Origin of the recorded values: ChEMBL document CHEMBL1140652
